Assay: Measurement of brain and systemic concentration after oral administration;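 note: unit ng/mL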
Type: in vivo
Details: rat, plasma; 3 h after oral administration (100 mg/kg), n=3, male wistar rats; read-out: concentration in plasma [P]
MEASURED_PARAMETER: concentration at 3 h (ng/mL)

SMILES_REPRESENTATION: Cc1ccc(C(=O)N2CCC[C@H]2c2nnc(-c3ccccc3OC(F)(F)F)[nH]2)c(-n2nccn2)c1
VALUE_MEASURED: 2770
--
SMILES_REPRESENTATION: Cc1cc(C(=O)N2CCC[C@H]2c2nc(-c3cccc(Cl)c3C)no2)c(-n2nccn2)cc1C
VALUE_MEASURED: 309

(a) C[C@@]1(c2nnc(-c3ccccc3OC(F)(F)F)[nH]2)CCCN1C(=O)c1ccc(Cl)cc1-n1nccn1
(b) COc1cc(C(=O)N2CCC[C@H]2c2noc(-c3ccccc3OC(F)(F)F)n2)c(-n2nccn2)cc1C
Kindly compare a with b and tell me which has the lower concentration at 3 h figure. Your choice should be expressed through its label.
a

----------
Biological target: orexin-1 (Homo sapiens (Human))
Test: Intracellular calcium measurement (FLIPR), CHO cells expressing human orexin-1 receptor, 3 nM orexin-A
Type: cell-based
Conditions: CHO cells expressing human orexin-1 receptor, FLIPR, 3 nM orexin-A; geometric mean if determined several times; read-out: IC50 OX1
pIC50: −log10 of the molar value.
MEASURED_PARAMETER: pIC50

Sample records with pIC50:
SMILES_REPRESENTATION: Cc1ccc(C(=O)N2CCC[C@@]2(C)c2nnc(-c3cccc(Cl)c3C)[nH]2)c(-c2ccccc2)c1
pIC50: 6.53
--
SMILES_REPRESENTATION: Cc1ccc(-n2nccn2)c(C(=O)N2CCC[C@H]2c2ncc(-c3cccc(Cl)c3)[nH]2)c1
pIC50: 6.37

(P) O=C(c1cc(OC(F)(F)F)ccc1-n1nccn1)N1CCC[C@H]1c1nc(-c2ccccc2OC(F)(F)F)no1
(Q) Cc1ccc(C)c(-c2nc([C@@H]3CCCN3C(=O)c3cc(C)c(C)cc3-n3nccn3)no2)c1
Which item exceeds the other in pIC50, P or Q ? Your choice should be expressed through its label.
Q

----------
Molecular target: UniProtKB O43614
Test: Intracellular calcium measurement (FLIPR), CHO cells expressing human orexin-2 receptor, 3 nM orexin-A
Type: cell-based
Conditions: CHO cells expressing human orexin-2 receptor, FLIPR, 3 nM orexin-A; geometric mean if determined several times; read-out: IC50 OX2
pIC50: −log10 of the molar value.
MEASURED_PARAMETER: pIC50

SMILES_REPRESENTATION: Cc1ccc(-n2nccn2)c(C(=O)N2CCC[C@H]2c2nc(-c3ccccc3)no2)c1
pIC50: 7.40

(A) O=C(c1cc(F)c(F)cc1-n1nccn1)N1CCC[C@H]1c1nc(-c2ccccc2OC(F)(F)F)no1
(B) COc1c(F)cccc1-c1noc([C@@H]2CCCN2C(=O)c2ccc(C(F)(F)F)cc2-n2nccn2)n1
(C) CCOc1c(F)cccc1-c1nc([C@@H]2CCCN2C(=O)c2ccc(C)cc2-n2nccn2)no1
(D) Cc1ccc(-n2nccn2)c(C(=O)N2CCC[C@H]2c2nc(-c3c(C)cncc3C)no2)c1
Order the records so the highest pIC50 appears first and the lowest last. State the ranking by listing the labels in the requested order.
C, B, A, D
(C: 8.40, B: 7.37, A: 6.69, D: 5.97)

----------
Molecular target: human orexin-2 receptor (Homo sapiens (Human))
Sequence (O43614 whole entry): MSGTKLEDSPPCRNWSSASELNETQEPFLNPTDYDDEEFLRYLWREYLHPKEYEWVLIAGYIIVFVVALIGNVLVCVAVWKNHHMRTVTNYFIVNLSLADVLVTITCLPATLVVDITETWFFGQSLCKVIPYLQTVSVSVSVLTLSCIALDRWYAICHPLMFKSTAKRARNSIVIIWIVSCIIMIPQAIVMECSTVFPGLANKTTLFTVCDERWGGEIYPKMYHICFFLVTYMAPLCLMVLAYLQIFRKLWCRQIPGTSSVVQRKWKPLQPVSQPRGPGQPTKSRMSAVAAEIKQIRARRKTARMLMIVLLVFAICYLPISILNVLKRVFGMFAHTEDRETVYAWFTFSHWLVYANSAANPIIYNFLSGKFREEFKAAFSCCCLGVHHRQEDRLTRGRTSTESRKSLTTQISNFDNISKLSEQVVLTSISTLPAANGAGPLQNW
Assay: Intracellular calcium measurement (FLIPR), CHO cells expressing human orexin-2 receptor, 3 nM orexin-A
Assay type: cell-based
Settings: CHO cells expressing human orexin-2 receptor, FLIPR, 3 nM orexin-A; geometric mean if determined several times; read-out: IC50 OX2
MEASURED_PARAMETER: IC50 (nM)

Sample records with IC50:
SMILES_REPRESENTATION: CCOc1ncccc1-c1noc([C@@H]2CCCN2C(=O)c2cc(C)ccc2-c2ccccn2)n1
MEASURED_PARAMETER: IC50
READOUT_UNITS: nM
VALUE_MEASURED: 14

SMILES_REPRESENTATION: COc1cc(C(=O)N2CCC[C@H]2c2nnc(-c3ccccc3OC)[nH]2)c(-n2nccn2)cc1Cl
MEASURED_PARAMETER: IC50
READOUT_UNITS: nM
VALUE_MEASURED: 10

(a) CCOc1ccccc1-c1cnc([C@@H]2CCCN2C(=O)c2ccc(C)cc2-n2nccn2)[nH]1
(b) COc1cc(C(=O)N2CCC[C@H]2c2noc(-c3cccc(F)c3C)n2)c(-n2nccn2)cc1C
Which item exceeds the other in IC50, a or b ? Your choice should be expressed through its label.
b

----------
Target: orexin-1 (Homo sapiens (Human), UniProt O43613)
Sequence (O43613 whole entry): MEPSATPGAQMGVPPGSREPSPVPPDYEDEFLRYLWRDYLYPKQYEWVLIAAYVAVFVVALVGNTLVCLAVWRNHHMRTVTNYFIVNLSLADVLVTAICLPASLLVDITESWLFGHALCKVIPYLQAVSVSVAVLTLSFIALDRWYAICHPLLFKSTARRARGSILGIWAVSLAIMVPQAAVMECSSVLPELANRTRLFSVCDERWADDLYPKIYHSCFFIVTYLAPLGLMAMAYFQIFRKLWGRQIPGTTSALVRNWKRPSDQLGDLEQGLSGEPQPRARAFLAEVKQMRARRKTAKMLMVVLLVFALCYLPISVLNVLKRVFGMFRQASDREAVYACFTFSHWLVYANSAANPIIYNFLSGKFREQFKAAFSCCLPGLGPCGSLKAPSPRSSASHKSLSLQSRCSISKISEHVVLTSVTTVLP
Experiment: Intracellular calcium measurement (FLIPR), CHO cells expressing human orexin-1 receptor, 3 nM orexin-A
Assay type: cell-based
Conditions: CHO cells expressing human orexin-1 receptor, FLIPR, 3 nM orexin-A; geometric mean if determined several times; read-out: IC50 OX1
MEASURED_PARAMETER: IC50 (nM)

Sample records with IC50:
COMPOUND: Cc1c(F)cccc1-c1noc([C@@H]2CCCN2C(=O)c2cc(C#N)ccc2-n2nccn2)n1 [compound 277]
IC50, nM: 1480

COMPOUND: COc1ccc(-n2nccn2)c(C(=O)N2CCC[C@H]2c2nc(-c3cccc(Cl)c3C)no2)c1F [compound 265]
IC50, nM: 112

COMPOUND: Cc1ccc(C(=O)N2CCC[C@H]2c2nc(-c3ccccc3OC(F)(F)F)no2)c(-n2nccn2)c1C [compound 271]
IC50, nM: 69

(I) COc1cc(C(=O)N2CCC[C@H]2c2nc(-c3ccccc3C(F)(F)F)no2)c(-n2nccn2)cc1C [compound 182]
(II) CCOc1ccccc1-c1noc([C@@H]2CCCN2C(=O)c2cc(OC)c(C)cc2-n2nccn2)n1 [compound 258]
Which item exceeds the other in IC50, I or II ? Your choice should be expressed through its label.
I
(I: 276 nM, II: 27 nM)

(I) Cc1ccc(-n2nccn2)c(C(=O)N2CCC[C@H]2c2nc(-c3ccnc4[nH]ccc34)no2)c1 [compound 75]
(II) O=C(c1ccccc1-n1nccn1)N1CCC[C@H]1c1nc(-c2ccccc2C(F)(F)F)no1 [compound 178]
Which item exceeds the other in IC50, I or II ? Your choice should be expressed through its label.
I

----------
Molecular target: UniProtKB O43614
Experiment: Intracellular calcium measurement (FLIPR), CHO cells expressing human orexin-2 receptor, 3 nM orexin-A
Format: cell-based
Conditions: CHO cells expressing human orexin-2 receptor, FLIPR, 3 nM orexin-A; geometric mean if determined several times; read-out: IC50 OX2
MEASURED_PARAMETER: IC50 (nM)

SMILES_REPRESENTATION: CCOc1ncccc1-c1noc([C@@H]2CCCN2C(=O)c2cc(OC)c(F)cc2-n2nccn2)n1
IC50 (nM): 17

(I) COc1ccc(-c2ccccc2)c(C(=O)N2CCC[C@H]2c2nc(-c3cccc(Cl)c3C)no2)c1
(II) COc1cccc(-c2cnc([C@@H]3CCCN3C(=O)c3cc(C)ccc3-n3nccn3)[nH]2)c1
Which item exceeds the other in IC50, I or II ? Your choice should be expressed through its label.
II
(II: 45 nM, I: 6 nM)

----------
Molecular target: orexin-1 (Homo sapiens (Human))
Assay: Intracellular calcium measurement (FLIPR), CHO cells expressing human orexin-1 receptor, 3 nM orexin-A
Assay type: cell-based
Details: CHO cells expressing human orexin-1 receptor, FLIPR, 3 nM orexin-A; geometric mean if determined several times; read-out: IC50 OX1
Procedure: In Vitro Assay: Intracellular Calcium Measurements: […] Within the Fluorescent Imaging Plate Reader (FLIPR Tetra, Molecular Devices), antagonists are added to the plate in a volume of 10 μL/well, incubated for 120 min and finally 10 μL/well of agonist is added. Fluorescence is measured for each well at 1 second intervals, and the height of each fluorescence peak is compared to the height of the fluorescence peak induced by 3 nM orexin-A with vehicle in place of antagonist. […]
MEASURED_PARAMETER: IC50 (nM)

Sample records with IC50:
COMPOUND: CCOc1ccccc1-c1cnc([C@@H]2CCCN2C(=O)c2cc(C)ccc2-n2nccn2)[nH]1 [compound 526]
TGT: orexin-1 (Homo sapiens (Human))
VALUE_MEASURED: 28
--
COMPOUND: COc1c(F)cccc1-c1nnc([C@@H]2CCCN2C(=O)c2cc(C)c(C)cc2-n2nccn2)[nH]1 [compound 474]
TGT: orexin-1 (Homo sapiens (Human))
VALUE_MEASURED: 16

(P) CCOc1ccccc1-c1nnc([C@@H]2CCCN2C(=O)c2cc(C)ccc2-n2nccn2)[nH]1 [compound 495]
(Q) Cc1ccc(-n2nccn2)c(C(=O)N2CCC[C@H]2c2ncc(-c3ccccc3C(F)(F)F)[nH]2)c1 [compound 528]
(R) Cc1ccc(C(=O)N2CCC[C@H]2c2ncc(-c3ccccc3OC(F)(F)F)[nH]2)c(-n2nccn2)c1 [compound 517]
(S) Cc1ccc(C(=O)N2CCC[C@H]2c2nc(-c3cccc(F)c3C)no2)c(-n2nccn2)c1 [compound 246]
Order the records so the highest IC50 appears first and the lowest last. State the ranking by listing the labels in the requested order.
Q, S, P, R
